Cited source for all entries: patent US11718628B2

- assay.comment: In vivo pharmacokinetic properties in mice (IV and PO)
- Set-up: species or system C57BL/6J mice
- condition.details: mouse, in vivo, po, 10 mg/kg
measured.quantity: Oral Administration (PO) Tmax (min)

mol=CC(C)OC(=O)Nc1ccc(-c2cncc(-c3ccnc(C(C)(C)C)c3)c2)c(Cl)c1 measured_quantity="Oral Administration (PO) Tmax" observed_value=30
mol=CC(C)(C)c1cc(-c2cncc(-c3ccc(C(=O)N4CCC(O)CC4)cc3Cl)c2)ccn1 measured_quantity="Oral Administration (PO) Tmax" observed_value=60
mol=CC(C)(C)c1cc(-c2cncc(-c3c(Cl)cc(C(=O)N4CCC(O)CC4)cc3Cl)c2)ccn1 measured_quantity="Oral Administration (PO) Tmax" observed_value=15
mol=CC1(O)CCN(C(=O)c2ccc(-c3cncc(-c4ccnc(C(C)(C)C)c4)c3)c(Cl)c2)CC1 measured_quantity="Oral Administration (PO) Tmax" observed_value=15

###

- assay.comment: In vivo pharmacokinetic properties in rats (IV and PO)
- Design: species or system male Sprague Dawley rats
- condition.details: PO 10 mg/kg vs IV 2 mg/kg
Tick y if % F (Bioavailability of oral delivery) is 10% or greater. Tick n if % F (Bioavailability of oral delivery) is less than 10%.

compound="CC(C)(C)c1cc(-c2cncc(-c3c(Cl)cc(C(=O)N4CCC(O)CC4)cc3Cl)c2)ccn1 [Z-826]" cat=y
compound="CC1(O)CCN(C(=O)c2ccc(-c3cncc(-c4ccnc(C(C)(C)C)c4)c3)c(Cl)c2)CC1 [Compound Z-780]" cat=y
compound="CC(C)(C)c1cc(-c2cncc(-c3ccc(C(=O)N4CCC(O)CC4)cc3Cl)c2)ccn1 [Compound Z-725]" cat=y
compound="Cc1cc(C(=O)N2CCC(O)CC2)ccc1-c1cncc(-c2ccnc(C(C)(C)C)c2)c1 [Compound Z-817]" cat=y
compound="CC(C)(C)c1cc(-c2cccc(-c3ccc(C(=O)N4CCC(O)CC4)cc3Cl)c2)ccn1 [Compound Z-744]" cat=n
compound="CC(C)OC(=O)Nc1ccc(-c2cncc(-c3ccnc(C(C)(C)C)c3)c2)c(Cl)c1 [Compound Z-774]" cat=n

###

- assay.comment: Half-life in human liver microsomes
- Format: in vitro ADME
- condition.details: human, liver microsomes, NADPH, 37° C., read-out: G: half-life human liver microsomes
Recorded measurements of half-life at 1 µM, one per entry
measured.quantity: half-life at 1 µM (min)

compound=CC(C)(C)c1cc(-c2cccc(-c3ccc(C(=O)NS(=O)(=O)C4CC4)cc3Cl)c2)ccn1 measured_quantity="half-life at 1 µM" observed_value=12.1
compound="CC(C)(C)c1cc(-c2cncc(-c3ccc(C(=O)N4CC(O)C(O)C4)cc3Cl)c2)ccn1 (stereo not drawn)" measured_quantity="half-life at 1 µM" observed_value=29.4
compound=CC(C)(C)c1cc(-c2cc(-c3ccc(C(=O)N4CCC(O)CC4)cc3Cl)cc3ncccc23)ccn1 measured_quantity="half-life at 1 µM" observed_value=19
compound=CC(C)OC(=O)Nc1ccc(-c2cncc(-c3ccnc(C(C)(C)O)c3)c2)c(Cl)c1 measured_quantity="half-life at 1 µM" observed_value=120
compound="CC(C)(C)c1cc(-c2cncc(-c3ccc(C(=O)N4CCC(O)C(F)C4)cc3Cl)c2)ccn1 (stereo not drawn)" measured_quantity="half-life at 1 µM" observed_value=120
compound="CC1CC(O)CC(C)N1C(=O)c1ccc(-c2cncc(-c3ccnc(C(C)(C)C)c3)c2)c(Cl)c1 (stereo not drawn)" measured_quantity="half-life at 1 µM" observed_value=6.33
compound=CC(C)(C)c1cc(-c2cccc(-c3ccc(NS(C)(=O)=O)cc3Cl)c2F)ccn1 measured_quantity="half-life at 1 µM" observed_value=16.4
compound=O=C(c1ccc(-c2cncc(-c3ccnc(C4CC4)c3)c2)c(Cl)c1)N1CC[C@H](O)C1 measured_quantity="half-life at 1 µM" observed_value=39.2
compound=CC(C)(C)c1cc(-c2cc(C#N)cc(-c3ccc(C(=O)N4CCC(O)CC4)cc3Cl)c2)ccn1 measured_quantity="half-life at 1 µM" observed_value=16.1

###

- assay.comment: In vivo pharmacokinetic properties in mice (IV and PO)
- Set-up: species or system C57BL/6J mice
- condition.details: mouse, in vivo, iv, 2 mg/kg
measured.quantity: Intravenous Delivery (IV) AUC0-last (ng·h/mL)

mol=CC(C)(C)c1cc(-c2cncc(-c3ccc(C(=O)N4CCC(O)CC4)cc3Cl)c2)ccn1 measured_quantity="Intravenous Delivery (IV) AUC0-last" u=ng·h/mL observed_value=1900
mol=CC(C)(C)c1cc(-c2cncc(-c3c(Cl)cc(C(=O)N4CCC(O)CC4)cc3Cl)c2)ccn1 measured_quantity="Intravenous Delivery (IV) AUC0-last" u=ng·h/mL observed_value=3930
mol=CC1(O)CCN(C(=O)c2ccc(-c3cncc(-c4ccnc(C(C)(C)C)c4)c3)c(Cl)c2)CC1 measured_quantity="Intravenous Delivery (IV) AUC0-last" u=ng·h/mL observed_value=913
mol=CC(C)OC(=O)Nc1ccc(-c2cncc(-c3ccnc(C(C)(C)C)c3)c2)c(Cl)c1 measured_quantity="Intravenous Delivery (IV) AUC0-last" u=ng·h/mL observed_value=1780

###

- assay.comment: In vivo pharmacokinetic properties in rats (IV and PO)
- Design: species or system male Sprague Dawley rats
- condition.details: male, Sprague Dawley, rat, plasma, IV, 2 mg/kg, read-out: Intravenous Delivery (IV) T1/2 (converted)
// reported half-life per item
measured.quantity: half-life (h)

molecule="CC(C)(O)c1cc(-c2cncc(-c3ccc(C(=O)N4CCC(O)CC4)cc3Cl)c2)ccn1 [Compound Z-796]" observed_value=3.08
molecule="CC(C)(C)c1cc(-c2cncc(-c3ccc(C(=O)N4CCC(O)CC4)cc3)c2F)ccn1 [Compound Z-866]" observed_value=0.91
molecule="O=C(c1ccc(-c2cncc(-c3ccnc4c3OCCO4)c2)c(Cl)c1)N1CCC(O)CC1 [Compound Z-806]" observed_value=2.03
molecule="CC(C)(C)c1cc(-c2cncc(-c3ccc(NS(C)(=O)=O)cc3Cl)c2)ccn1 [Compound Z-803]" observed_value=4.86

###

Listed compounds paired with reported Plasma ng/mL (6 h)
- assay.comment: Plasma and liver compound levels in mice after oral administration
- Assay type: in vivo
- condition.details: 30 mpk, 6 h
- Method: The pharmacodynamic properties of selected compounds were evaluated in mice. The animals were housed in cages with clean bedding, and maintained and monitored for good health in accordance with Test Facility SOPs and at the discretion of the laboratory animal veterinarian. […] Aliquots of the compounds being evaluated were weighed and triturated with 0.5% methylcellulose (with the addition of 5% N-methyl pyrrolidone when required to remove clumping, as for Z-806) to an appropriate dose concentration. […]
measured.quantity: Plasma ng/mL (6 h)

compound="CC(C)(C)c1cc(-c2cccc(-c3ccc(C(=O)N4CCC(O)CC4)cc3Cl)c2)ccn1 [Compound Z-744]" measured_quantity="Plasma ng/mL (6 h)" observed_value="100 to 1000 ng/mL"
compound="CC(C)OC(=O)Nc1ccc(-c2cncc(-c3ccnc(C(C)(C)C)c3)c2)c(Cl)c1 [Compound Z-774]" measured_quantity="Plasma ng/mL (6 h)" observed_value="100 to 1000 ng/mL"
compound="CC(C)(C)c1cc(-c2cncc(-c3ccc(C(=O)N4CCC(O)CC4)cc3Cl)c2)ccn1 [Compound Z-725]" measured_quantity="Plasma ng/mL (6 h)" observed_value="100 to 1000 ng/mL"
compound="Cc1cc(C(=O)N2CCC(O)CC2)ccc1-c1cncc(-c2ccnc(C(C)(C)C)c2)c1 [Compound Z-817]" measured_quantity="Plasma ng/mL (6 h)" observed_value="<100 ng/mL"
compound="CC(C)(C)c1cc(-c2cncc(-c3c(Cl)cc(C(=O)N4CCC(O)CC4)cc3Cl)c2)ccn1 [Z-826]" measured_quantity="Plasma ng/mL (6 h)" observed_value=">1000 ng/mL"
compound="CC1(O)CCN(C(=O)c2ccc(-c3cncc(-c4ccnc(C(C)(C)C)c4)c3)c(Cl)c2)CC1 [Compound Z-780]" measured_quantity="Plasma ng/mL (6 h)" observed_value="100 to 1000 ng/mL"

###

Quick reference for Oral Administration (PO) Tmax among some compounds
- assay.comment: In vivo pharmacokinetic properties in rats (IV and PO)
- Parameters: species or system male Sprague Dawley rats
- condition.details: PO, 10 mg/kg
measured.quantity: Oral Administration (PO) Tmax (min)

mol=CC(C)(C)c1cc(-c2cncc(-c3ccc(C(=O)N4CCC(O)CC4)cc3Cl)c2)ccn1 measured_quantity="Oral Administration (PO) Tmax" observed_value=100
mol=CC(C)OC(=O)Nc1ccc(-c2cncc(-c3ccnc(C(C)(C)C)c3)c2)c(Cl)c1 measured_quantity="Oral Administration (PO) Tmax" observed_value=20
mol=CC1(O)CCN(C(=O)c2ccc(-c3cncc(-c4ccnc(C(C)(C)C)c4)c3)c(Cl)c2)CC1 measured_quantity="Oral Administration (PO) Tmax" observed_value=45
mol=CC(C)(C)c1cc(-c2cccc(-c3ccc(C(=O)N4CCC(O)CC4)cc3Cl)c2)ccn1 measured_quantity="Oral Administration (PO) Tmax" observed_value=120
mol=CC(C)(C)c1cc(-c2cncc(-c3c(Cl)cc(C(=O)N4CCC(O)CC4)cc3Cl)c2)ccn1 measured_quantity="Oral Administration (PO) Tmax" observed_value=60
mol=Cc1cc(C(=O)N2CCC(O)CC2)ccc1-c1cncc(-c2ccnc(C(C)(C)C)c2)c1 measured_quantity="Oral Administration (PO) Tmax" observed_value=19.8
